- target under test: Gal4 DNA binding domain fused to the LBD of LXRα in HEK293 cells (Homo sapiens (Human))
- Sequence (Q13133 209-447): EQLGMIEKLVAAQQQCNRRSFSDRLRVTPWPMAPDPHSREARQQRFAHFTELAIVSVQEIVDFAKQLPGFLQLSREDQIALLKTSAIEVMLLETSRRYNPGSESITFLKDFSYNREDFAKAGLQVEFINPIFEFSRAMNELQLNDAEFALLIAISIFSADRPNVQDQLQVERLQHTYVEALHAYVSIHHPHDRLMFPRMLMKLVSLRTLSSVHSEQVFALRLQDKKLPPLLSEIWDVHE
- procedure summary: LXR luciferase transcriptional reporter gene assay, agonist mode, LXRα
- Assay type: cell-based
- run conditions: agonist mode; read-out: Cell LXRα EC50
Each record here notes measured EC50.
test readout: EC50 (nM)

>  <molecule>
CC(C)[C@@H]1CN(c2ccc(F)c(S(C)(=O)=O)c2)CCN1c1ncc(C(F)(F)F)cc1[N+](=O)[O-]

>  <measurement>
3110

$$$$
>  <molecule>
COC(=O)c1cnc(N2CCN(c3ccc(F)c(S(=O)(=O)N(C)Cc4ccc(OC)cc4)c3)C[C@H]2C(C)C)nc1C(F)(F)F

>  <measurement>
951

$$$$
>  <molecule>
CC(C)COC(=O)N1CCN(c2cccc(S(C)(=O)=O)c2)CC1c1ccccc1 (stereo not shown)

>  <measurement>
3050

$$$$
>  <molecule>
CC(C)C[C@@H]1CN(c2cccc(S(C)(=O)=O)c2)CCN1C(=O)OC(C)(C)C

>  <measurement>
955

$$$$

// provenance: patent US10144715B2
